Each entry below carries its recorded pKd.
# system name: T1, hLTBP1-proTGFβ1 (human, UniProt Q14766 347-1721; P01137 30-390, limits assumed)
# T1 construct: Large latent complex (LLC): proTGFβ1 dimer disulfide-linked to one presenting molecule; recombinant, purified, biotinylated in BLI/SPR; The same id is used for the complex made by transfected cells in the reporter assays; also called human LTBP1-proTGFβ1 complex; LTBP1-ProTGFb1
# T1 sequence (Q14766 347-1721 limits assumed, chain 1 of 2): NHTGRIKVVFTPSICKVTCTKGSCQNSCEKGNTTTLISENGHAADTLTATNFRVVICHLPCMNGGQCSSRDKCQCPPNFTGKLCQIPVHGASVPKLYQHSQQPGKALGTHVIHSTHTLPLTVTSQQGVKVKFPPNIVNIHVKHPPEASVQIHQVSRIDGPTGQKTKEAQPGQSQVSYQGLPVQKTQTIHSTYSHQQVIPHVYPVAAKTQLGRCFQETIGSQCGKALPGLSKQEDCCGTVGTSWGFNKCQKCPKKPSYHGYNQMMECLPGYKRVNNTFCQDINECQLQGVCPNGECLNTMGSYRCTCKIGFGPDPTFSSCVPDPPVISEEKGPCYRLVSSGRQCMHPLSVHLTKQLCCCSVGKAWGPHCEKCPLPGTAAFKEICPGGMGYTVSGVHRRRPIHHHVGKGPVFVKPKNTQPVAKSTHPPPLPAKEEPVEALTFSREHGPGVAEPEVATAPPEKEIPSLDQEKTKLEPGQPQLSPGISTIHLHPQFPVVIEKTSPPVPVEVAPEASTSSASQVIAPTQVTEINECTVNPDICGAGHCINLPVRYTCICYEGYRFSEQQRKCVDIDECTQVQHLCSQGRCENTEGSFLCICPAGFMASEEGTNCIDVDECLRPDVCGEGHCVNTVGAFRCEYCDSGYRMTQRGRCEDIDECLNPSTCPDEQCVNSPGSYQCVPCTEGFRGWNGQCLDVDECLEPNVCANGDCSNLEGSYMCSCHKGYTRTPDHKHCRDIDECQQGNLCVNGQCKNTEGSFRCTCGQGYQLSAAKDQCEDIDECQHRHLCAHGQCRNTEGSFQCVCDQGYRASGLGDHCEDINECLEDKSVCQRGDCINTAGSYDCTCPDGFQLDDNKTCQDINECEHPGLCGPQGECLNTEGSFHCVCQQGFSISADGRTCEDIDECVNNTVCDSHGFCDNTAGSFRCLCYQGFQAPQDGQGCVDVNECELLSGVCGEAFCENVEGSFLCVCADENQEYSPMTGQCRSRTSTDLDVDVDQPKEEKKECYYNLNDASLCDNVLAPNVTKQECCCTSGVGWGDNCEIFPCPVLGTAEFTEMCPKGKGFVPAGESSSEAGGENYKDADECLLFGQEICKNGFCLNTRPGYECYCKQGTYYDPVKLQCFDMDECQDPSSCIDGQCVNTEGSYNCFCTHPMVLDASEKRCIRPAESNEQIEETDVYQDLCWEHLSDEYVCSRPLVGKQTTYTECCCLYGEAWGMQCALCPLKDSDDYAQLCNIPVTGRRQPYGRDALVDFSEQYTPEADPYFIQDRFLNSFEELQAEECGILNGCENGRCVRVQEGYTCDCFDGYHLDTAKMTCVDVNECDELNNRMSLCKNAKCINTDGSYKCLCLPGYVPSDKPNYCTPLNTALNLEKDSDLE
# T1 sequence (P01137 30-390 limits assumed, chain 2 of 2): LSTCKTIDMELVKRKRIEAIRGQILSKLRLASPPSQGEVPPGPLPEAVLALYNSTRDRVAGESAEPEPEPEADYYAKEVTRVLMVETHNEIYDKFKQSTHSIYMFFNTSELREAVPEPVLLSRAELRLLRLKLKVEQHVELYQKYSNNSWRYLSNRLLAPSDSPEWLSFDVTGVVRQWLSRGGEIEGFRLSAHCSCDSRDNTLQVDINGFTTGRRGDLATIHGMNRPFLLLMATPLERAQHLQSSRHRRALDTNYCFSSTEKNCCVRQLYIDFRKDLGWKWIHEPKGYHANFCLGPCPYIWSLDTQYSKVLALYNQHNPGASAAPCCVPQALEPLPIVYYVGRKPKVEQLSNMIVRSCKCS
# experimental details: MSD-SET, hIgG4
# Description: For solution equilibrium titration-based binding assays, protein complexes that comprise one of the presenting molecules such as those shown above may be employed as antigen (presenting molecule-TGFβ1 complex, or an LLC). […] Antigen-antibody reaction mixtures are incubated to allow an equilibrium to be reached; the amount of the antigen-antibody complex present in the assay reactions can be measured by suitable means well known in the art. […]
pKd: −log10 of the molar value.

| binder | pKd |
| --- | --- |
| Ab22 (antibody, V domains shown) VH: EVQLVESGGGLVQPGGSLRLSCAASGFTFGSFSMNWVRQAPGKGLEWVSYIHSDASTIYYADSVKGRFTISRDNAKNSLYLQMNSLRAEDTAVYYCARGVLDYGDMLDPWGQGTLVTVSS VL: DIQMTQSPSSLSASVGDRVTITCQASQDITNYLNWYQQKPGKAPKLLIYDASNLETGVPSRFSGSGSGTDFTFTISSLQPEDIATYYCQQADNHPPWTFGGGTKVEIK | 10.30 |
| Ab26 (antibody, V domains shown) VH: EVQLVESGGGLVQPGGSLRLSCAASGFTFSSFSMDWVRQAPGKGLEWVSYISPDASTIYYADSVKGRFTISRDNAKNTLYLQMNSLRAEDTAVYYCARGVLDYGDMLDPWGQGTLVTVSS VL: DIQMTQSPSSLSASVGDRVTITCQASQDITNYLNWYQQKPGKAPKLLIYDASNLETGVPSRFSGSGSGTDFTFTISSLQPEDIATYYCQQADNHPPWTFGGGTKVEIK | 10.55 |
| Ab31 (antibody, V domains shown) VH: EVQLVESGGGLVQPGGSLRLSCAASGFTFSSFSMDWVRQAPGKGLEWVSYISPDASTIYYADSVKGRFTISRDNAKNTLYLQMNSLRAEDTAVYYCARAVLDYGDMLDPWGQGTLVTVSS VL: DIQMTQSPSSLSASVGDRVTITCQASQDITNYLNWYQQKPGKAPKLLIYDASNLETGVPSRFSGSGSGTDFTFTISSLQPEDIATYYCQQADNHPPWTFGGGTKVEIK | 10.72 |
